TARGET OF ASSAY: Tubulin (Sus scrofa) (UniProt P02554+P02550)
Sequence (P02550 whole entry, looked up): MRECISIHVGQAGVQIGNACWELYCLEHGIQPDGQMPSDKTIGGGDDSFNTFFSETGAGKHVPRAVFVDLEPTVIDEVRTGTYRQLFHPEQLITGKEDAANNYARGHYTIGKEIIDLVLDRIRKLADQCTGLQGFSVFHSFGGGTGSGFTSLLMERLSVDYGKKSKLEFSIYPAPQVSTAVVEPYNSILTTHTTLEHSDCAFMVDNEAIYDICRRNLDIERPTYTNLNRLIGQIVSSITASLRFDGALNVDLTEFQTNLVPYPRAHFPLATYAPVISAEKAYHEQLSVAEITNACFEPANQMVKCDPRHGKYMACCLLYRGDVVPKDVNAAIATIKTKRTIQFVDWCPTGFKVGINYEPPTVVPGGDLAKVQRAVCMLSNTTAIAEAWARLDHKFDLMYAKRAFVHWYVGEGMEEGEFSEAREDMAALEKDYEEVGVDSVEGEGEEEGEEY
Sequence (P02554 whole entry, looked up): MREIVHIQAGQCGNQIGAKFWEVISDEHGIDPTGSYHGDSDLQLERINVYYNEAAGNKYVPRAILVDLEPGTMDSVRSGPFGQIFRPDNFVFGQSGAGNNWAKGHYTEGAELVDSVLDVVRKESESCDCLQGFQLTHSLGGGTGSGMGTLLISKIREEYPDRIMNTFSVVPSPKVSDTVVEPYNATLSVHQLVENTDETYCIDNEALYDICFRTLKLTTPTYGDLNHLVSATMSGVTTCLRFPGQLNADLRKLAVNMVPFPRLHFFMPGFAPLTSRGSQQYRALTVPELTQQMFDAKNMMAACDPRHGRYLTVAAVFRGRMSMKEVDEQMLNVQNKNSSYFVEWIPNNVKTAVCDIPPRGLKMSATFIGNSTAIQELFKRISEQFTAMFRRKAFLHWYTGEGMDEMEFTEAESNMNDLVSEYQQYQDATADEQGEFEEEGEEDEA
ASSAY NAME: Inhibition of purified porcine tubulin polymerization 100 uM by spectrophotometry
Format: protein assay
Activity calls are given as the source filed them. No cut-off for these calls is given here.

- COMPOUND: "COc1cc(OC)c(CCC(=O)c2ccc(O)c(OC)c2)c(OC)c1"
  TARGET OF ASSAY: "Tubulin (Sus scrofa) (UniProt P02554+P02550)"
  inhibition: "10%"
- COMPOUND: "COc1cc(OC)c(CCC(O)c2ccc3c(c2)OCO3)c(OC)c1 (configuration not stated)"
  TARGET OF ASSAY: "Tubulin (Sus scrofa) (UniProt P02554+P02550)"
  inhibition: "Active"
- COMPOUND: "COC1=CC(=O)C(CCC(=O)c2ccc3c(c2)OCO3)=C(OC)C1=O"
  TARGET OF ASSAY: "Tubulin (Sus scrofa) (UniProt P02554+P02550)"
  inhibition: "40%"
- COMPOUND: "COC1=CC(=O)C(CCC(=O)c2ccc(OC)c(OC)c2)=C(OC)C1=O"
  TARGET OF ASSAY: "Tubulin (Sus scrofa) (UniProt P02554+P02550)"
  inhibition: "inactive"
- COMPOUND: "COc1cc(O)c(CCC(=O)c2ccc(O)c(OC)c2)c(OC)c1"
  TARGET OF ASSAY: "Tubulin (Sus scrofa) (UniProt P02554+P02550)"
  inhibition: "Active"
- COMPOUND: "COc1ccc(C(=O)CCc2c(OC)cc(OC)c(OC)c2OC)cc1OC"
  TARGET OF ASSAY: "Tubulin (Sus scrofa) (UniProt P02554+P02550)"
  inhibition: "inactive"
- COMPOUND: "COc1cc(OC)c(CCC(=O)c2ccc(OC)c(O)c2)c(OC)c1"
  TARGET OF ASSAY: "Tubulin (Sus scrofa) (UniProt P02554+P02550)"
  inhibition: "Active"
